# EXPERIMENTAL SYSTEM: Lipolase® 100L (Thermomyces lanuginosus, UniProt O59952)
# Construct: purchased Sigma-Aldrich
# Sequence (O59952 23-291): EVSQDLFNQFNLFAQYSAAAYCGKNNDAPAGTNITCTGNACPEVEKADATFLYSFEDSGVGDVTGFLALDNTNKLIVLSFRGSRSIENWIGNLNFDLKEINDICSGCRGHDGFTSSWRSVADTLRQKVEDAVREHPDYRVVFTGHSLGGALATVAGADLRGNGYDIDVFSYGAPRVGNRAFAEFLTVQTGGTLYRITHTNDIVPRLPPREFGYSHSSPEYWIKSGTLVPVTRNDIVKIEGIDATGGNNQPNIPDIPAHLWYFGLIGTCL
# MEASUREMENT NOTES: Lipase storage stability in liquid formulations at 37° C. (pNP-valerate activity)
# Assay type: biochemical, Thermomyces lanuginosa
# CONDITION LABEL: base formulation IV. (Lipolase 0.2 wt%, tested compound 2.0 wt%); 7 d storage at 37° C.
READOUT KIND: lipase activity, 7 d (%)
Express the result in % but write the number alone.

Under Lipolase® 100L (Thermomyces lanuginosus, UniProt O59952): lipase activity, 7 d value of CCOC(=O)CC(O)(CC(=O)O)C(=O)O (centres unmarked) [A.6, Monoethylcitrate] ?
92

Under Lipolase® 100L (Thermomyces lanuginosus, UniProt O59952): lipase activity, 7 d value of CCOC(=O)CC(O)(CC(=O)OCC)C(=O)OCC [A.1, Triethylcitrate] ?
94

Under Lipolase® 100L (Thermomyces lanuginosus, UniProt O59952): lipase activity, 7 d value of CCOC(=O)C(=O)OCC [B.3, diethyloxalate, reference compound] ?
86

Under Lipolase® 100L (Thermomyces lanuginosus, UniProt O59952): lipase activity, 7 d value of CCCCOC(=O)CC(O)(CC(=O)OCCCC)C(=O)OCCCC [A.3, Tributylcitrate] ?
96

Under Lipolase® 100L (Thermomyces lanuginosus, UniProt O59952): lipase activity, 7 d value of CCCCOC(=O)CC(CC(=O)OCCCC)(OC(C)=O)C(=O)OCCCC [A.4, Acetyltributylcitrate] ?
95

Under Lipolase® 100L (Thermomyces lanuginosus, UniProt O59952): lipase activity, 7 d value of O=C(O)CC(O)(CC(=O)O)C(=O)O [B.1, citric acid, reference compound] ?
82

Under Lipolase® 100L (Thermomyces lanuginosus, UniProt O59952): lipase activity, 7 d value of O=C([O-])CC(O)(CC(=O)[O-])C(=O)[O-].[Na+].[Na+].[Na+] [B.2, citric acid trisodiumsalt, reference compound] ?
81

Under Lipolase® 100L (Thermomyces lanuginosus, UniProt O59952): lipase activity, 7 d value of CC(=O)OCC(COC(C)=O)OC(C)=O [B.4, glyceroltriacetate (triacetine), reference compound] ?
82
